# testSystem: recombinant His-tag Wip1 full length protein (amino acids #1-605) (Homo sapiens (Human))
# Sequence (O15297 whole entry): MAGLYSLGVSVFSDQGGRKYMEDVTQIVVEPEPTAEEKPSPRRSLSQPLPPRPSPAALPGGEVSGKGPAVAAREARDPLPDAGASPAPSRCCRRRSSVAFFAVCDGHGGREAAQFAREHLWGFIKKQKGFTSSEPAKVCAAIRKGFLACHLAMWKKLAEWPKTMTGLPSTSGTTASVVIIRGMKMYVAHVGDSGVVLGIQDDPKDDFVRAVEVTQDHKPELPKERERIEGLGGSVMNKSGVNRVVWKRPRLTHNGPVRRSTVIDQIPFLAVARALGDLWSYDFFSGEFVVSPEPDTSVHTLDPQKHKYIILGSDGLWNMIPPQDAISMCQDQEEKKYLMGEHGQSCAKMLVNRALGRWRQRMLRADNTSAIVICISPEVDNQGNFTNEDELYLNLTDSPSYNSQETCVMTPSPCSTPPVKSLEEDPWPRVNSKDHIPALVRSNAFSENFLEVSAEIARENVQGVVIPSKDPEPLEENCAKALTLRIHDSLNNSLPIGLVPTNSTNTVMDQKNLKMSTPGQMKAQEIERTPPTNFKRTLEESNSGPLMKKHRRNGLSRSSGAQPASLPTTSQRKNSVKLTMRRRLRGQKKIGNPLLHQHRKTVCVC
# assayExplanation: Wip1 full length phosphatase enzyme FDP assay
# conditionDescription: fluorescein diphosphate (FDP) substrate, RT 2 hours, fluorescence Ex485/Em535
# Description: The Human Wip1 (2-420, aa 2-420) or Wip1 full length (aa 1-605) DNA sequence was codon optimized and synthesized by Genscript for insect cell expression. The open reading frame of Wip1(2-420) with a N-terminal-His6 affinity tag followed by a TEV cleavage site was subcloned sites into the pFastBac1 expression vector. The recombinant bacmid DNA was transfected in Sf9 insect cells for baculovirus production. […]
Response field label takes Y when IC50 is strictly below 40 nM and N in all other cases.

[[record]]
compound = "Cc1ncc(Cl)cc1N[C@H](C)c1ccc(C(=O)N[C@@H](CC2CCCC2)C(=O)NC23CC(C2)C3)s1"
classlabel = "N"

[[record]]
compound = "Cc1ncc(Cl)cc1N[C@@H](C)c1ccc(C(=O)N[C@@H](CC2CCCC2)C(=O)NC2CC(C)C2)s1 (some centres unmarked)"
classlabel = "Y"

[[record]]
compound = "Cc1ncc(Cl)cc1N[C@@H](C)c1ccc(C(=O)N[C@@H](CC2CCCC2)C(=O)Nc2ccc(F)cc2)s1"
classlabel = "Y"

[[record]]
compound = "O=C(N[C@@H](CC1CCCCC1)C(=O)NC1CC1)c1cnc(CN2CCc3ccc(C(F)(F)F)cc32)s1"
classlabel = "Y"

[[record]]
compound = "Cc1ncc(Cl)cc1N[C@@H](C)c1ncc(C(=O)N[C@@H](CC2CCCC2)C(=O)NC2CC2)s1"
classlabel = "N"

[[record]]
compound = "Cc1ncc(Cl)cc1N[C@@H](C)c1ccc(C(=O)N[C@@H](CC2CCCC2)C(=O)NC2(C#N)CC2)s1"
classlabel = "Y"

[[record]]
compound = "Cc1cc(NC(=O)[C@H](CC2CCCC2)NC(=O)c2ccc([C@H](C)Nc3cc(Cl)cnc3C)s2)ccn1"
classlabel = "Y"

[[record]]
compound = "Cc1ncc(Cl)cc1N[C@@H](C)c1ccc(C(=O)N[C@@H](CC2CCCC2)C(=O)NC23CC(C)(C2)C3)s1"
classlabel = "Y"

[[record]]
compound = "C[C@@H](c1ccc(C(=O)N[C@@H](CC2CCCC2)C(=O)NC2CC2)s1)N1CCc2cc(F)c(Cl)cc21"
classlabel = "N"

[[record]]
compound = "CC[C@H](Nc1cc(Cl)cnc1C)c1ccc(C(=O)N[C@@H](CC2CCCC2)C(=O)N[C@@H]2CC2(F)F)s1"
classlabel = "Y"

[[record]]
compound = "COc1ncc(Cl)cc1N[C@@H](C)c1ccc(C(=O)N[C@@H](CC2CCCC2)C(=O)N[C@H]2CC2(F)F)s1"
classlabel = "N"

[[record]]
compound = "Cc1ncc(Cl)cc1NC(C)c1ccc(C(=O)N[C@@H](CC2CCCC2)C(=O)NC2CC2)s1 (some centres unmarked)"
classlabel = "Y"

[[record]]
compound = "Cc1cc(NC(=O)[C@H](CC2CCCC2)NC(=O)c2cnc([C@@H](C)Nc3cccc(Cl)c3)s2)cc(C)n1"
classlabel = "N"

[[record]]
compound = "Cc1ncc(Cl)cc1N[C@@H](C)c1ccc(C(=O)N[C@@H](CC2CCCC2)C(=O)N[C@H]2C[C@@H](F)C2)s1"
classlabel = "Y"

